- assay target: Mast/stem cell growth factor receptor Kit (Homo sapiens, UniProt P10721)
- Sequence (P10721 whole entry): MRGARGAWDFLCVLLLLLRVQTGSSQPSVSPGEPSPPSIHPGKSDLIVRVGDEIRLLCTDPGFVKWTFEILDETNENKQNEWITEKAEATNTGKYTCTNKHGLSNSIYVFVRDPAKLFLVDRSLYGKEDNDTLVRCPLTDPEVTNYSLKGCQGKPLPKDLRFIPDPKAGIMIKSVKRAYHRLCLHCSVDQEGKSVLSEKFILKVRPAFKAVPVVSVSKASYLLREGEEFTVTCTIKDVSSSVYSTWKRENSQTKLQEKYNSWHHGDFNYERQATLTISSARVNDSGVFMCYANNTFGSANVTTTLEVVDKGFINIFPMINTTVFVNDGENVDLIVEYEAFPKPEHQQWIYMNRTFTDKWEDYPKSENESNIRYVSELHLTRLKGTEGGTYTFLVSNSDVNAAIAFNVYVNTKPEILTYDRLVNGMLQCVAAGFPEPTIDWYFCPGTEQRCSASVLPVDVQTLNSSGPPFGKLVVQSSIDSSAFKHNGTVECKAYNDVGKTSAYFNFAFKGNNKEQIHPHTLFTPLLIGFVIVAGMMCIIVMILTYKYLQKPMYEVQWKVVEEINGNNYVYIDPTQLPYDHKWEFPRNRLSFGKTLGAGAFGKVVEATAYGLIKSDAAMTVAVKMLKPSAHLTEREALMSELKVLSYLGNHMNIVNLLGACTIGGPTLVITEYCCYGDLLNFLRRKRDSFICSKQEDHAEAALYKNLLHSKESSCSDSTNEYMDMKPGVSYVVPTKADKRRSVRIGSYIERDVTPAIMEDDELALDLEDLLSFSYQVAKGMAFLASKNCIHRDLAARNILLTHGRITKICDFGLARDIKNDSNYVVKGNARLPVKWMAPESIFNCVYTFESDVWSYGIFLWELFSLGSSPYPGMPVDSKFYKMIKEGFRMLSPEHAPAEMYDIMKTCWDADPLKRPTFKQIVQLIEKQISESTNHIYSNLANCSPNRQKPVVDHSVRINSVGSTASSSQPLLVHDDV
pIC50: −log10 of the molar value.

structure	pIC50
Cc1ccccc1NC(=O)Nc1ccc(-c2c(C)sc3ncnc(N)c23)c(Cl)c1	6.70
